Test system: Staphylococcus 209 P
Assay: Minimum inhibitory concentration by agar dilution, Staphylococcus 209 P
Type: cell-based
Details: Staphylococcus, N.A. (nutrient agar, pH 6.8), 37° C., 18 hours, Table I, read-out: minimum inhibitory concentration (M.I.C.)
Output TRUE for records whose MIC is lower than 10 µg/mL, FALSE for records at or above 10 µg/mL.

In [3]: df
Out[3]:
                                   compound     target_under_test  group_label
0  CCn1cc(C(=O)O)c(=O)c2cnc(N3CCN(CCO)CC3)nc21 [Example VI]  Staphylococcus 209 P         TRUE

Input line: Is MIC of Cn1cc(C(=O)O)c(=O)c2cnc(N3CCN(CCO)CC3)nc21 [Example XI] strictly below 10 µg/mL?
Output line: FALSE

Input line: State whether 10 µg/mL exceeds MIC recorded for CCn1cc(C(=O)O)c(=O)c2cnc(N3CCNCC3)nc21 [Example VIII] .
Output line: FALSE

Input line: Find out if reported MIC for CCn1cc(C(=O)O)c(=O)c2cnc(N3CCN(Cc4ccccc4)CC3)nc21 [Example VII] is less than 10 µg/mL
Output line: TRUE

Input line: Dear colleague, could you confirm whether MIC of CCn1cc(C(=O)O)c(=O)c2cnc(N3CCN(C)CC3)nc21 [Example V] falls below 10 µg/mL? Thanks.
Output line: TRUE

Input line: State whether 10 µg/mL exceeds MIC recorded for CCn1cc(C(=O)O)c(=O)c2cnc(N3CCC(O)CC3)nc21 [IV] .
Output line: TRUE

Input line: Check if MIC falls below 10 µg/mL for CN1CCN(c2ncc3c(=O)c(C(=O)O)cn(C)c3n2)CC1 [Example X] .
Output line: FALSE

The measured values listed here are drawn from patent US4129737A.
